pKi: −log10 of the molar value.
System: Non-receptor tyrosine-protein kinase TYK2 (Homo sapiens, UniProt P29597) | Read-out: pKi | Origin: multiple publications
Classify by measured pKi: 1 (yes) if it is equal to or exceeds 7, 0 (no) if it is smaller.

Use these answered entries as a reference point.
O=C(O)[C@H]1C[C@@H](n2cnc3cnc4[nH]ccc4c32)C1 :: 0 (no)
CN1CCC[C@H]1C(=O)N1CCC(n2nnc3cnc4[nH]ccc4c32)CC1 :: 0 (no)
FC(F)(F)CN1CCC(n2cnc3cnc4[nH]ccc4c32)CC1 :: 1 (yes)

Given COC(=O)N(C)[C@H]1CC[C@H](n2cnc3cnc4[nH]ccc4c32)CC1 , state whether its pKi is at least 7.
1 (yes)

Given O=C1NCc2nc(-c3c(F)cccc3F)nc(Nc3ccc4c(c3)NCC4)c21 , state whether its pKi is at least 7.
1 (yes)

Given C[C@H]1COCCN1C(=O)Cc1ccc(Nc2nc(-c3c(F)cccc3F)nc3c2C(=O)NC3)cc1 , state whether its pKi is at least 7.
1 (yes)

Given CO[C@H]1CC[C@H](n2c(CO)nc3cnc4[nH]ccc4c32)CC1 , state whether its pKi is at least 7.
1 (yes)
